Assay: qHTS assay to identify small molecule agonists of the endoplasmic reticulum stress response signaling pathway - cell viability counter screen (AID 1159517);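 note: HeLa cells carrying an ER stress response element beta-lactamase reporter; nearly all actives have a fitted effect of over 50% in size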
Details: ESRE-bla HeLa viability, CellTiter-Glo luminescence, 5 h; series mostly up to 61 µM
Inconclusive results are not listed. Activity calls are given as the source filed them. Calls come from the whole dose curve.
metric: outcome

[in] Identify measured outcome corresponding to CCCCC1C(=O)NC(=O)N(C2CCCCC2)C1=O (stereo not drawn)
[out] inactive

[in] Identify measured outcome corresponding to C=C(Cl)Cl
[out] inactive

[in] Identify measured outcome corresponding to CN(C)N
[out] inactive

----------
Assay: qHTS assay to identify small molecule antagonists of the thyroid receptor (TR) signaling pathway - cell viability counter screen (AID 743064); note: nearly all actives have a fitted effect of over 50% in size
Settings: GH3.TRE-Luc viability, CellTiter-Fluor, 24 h; series mostly up to 70.3 µM
Records with an inconclusive call do not appear. The source made the active and inactive calls. Calls come from the whole dose curve; as a rule, active = well fitted cell-killing curve with a large enough effect in the repeat runs; inconclusive = weak or mixed curves, or effect the other way; inactive = no such curve, though single readings can be large or run the other way.
Return exactly one item of active, inactive

[in] Fill in: this test's call for O=[N+]([O-])c1cc(Cl)c(Cl)cc1Cl is ___
[out] inactive

[in] Fill in: this test's call for CCNC(=O)NC(=O)/C(C#N)=N/OC is ___
[out] inactive

[in] Fill in: this test's call for O=C(Cc1ccccc1)c1ccccc1 is ___
[out] inactive

[in] Fill in: this test's call for Cc1nc2ccccc2c(=O)n1-c1ccccc1Cl is ___
[out] active

[in] Fill in: this test's call for CC1(C)[C@H](C(=O)O[C@H](C#N)c2cccc(Oc3ccccc3)c2)[C@@H]1C=C(Br)Br is ___
[out] inactive

[in] Fill in: this test's call for CN1CC[C@]23c4c5ccc(O)c4O[C@H]2[C@@H](O)C=C[C@H]3[C@H]1C5 is ___
[out] inactive

[in] Fill in: this test's call for CCC1(CCC(C)C)C(=O)NC(=O)NC1=O is ___
[out] inactive

[in] Fill in: this test's call for C[N+](C)(C)CC1CO1 (stereo not drawn) is ___
[out] inactive

----------
Experiment: qHTS assay to identify small molecule that activate the aryl hydrocarbon receptor (AhR) signaling pathway - cell viability counter screen (AID 743086);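 note: HepG2 liver cells carrying the AhR DRE luciferase reporter; nearly all actives have a fitted effect of over 45% in size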
Conditions: HepG2-AhR-luc viability, CellTiter-Fluor, 24 h; series mostly up to 70.3 µM
Inconclusive results are not listed. Active and inactive are the calls of the source. Calls follow the shape of the dose curve; as a rule, active = well fitted cell-killing curve with a large enough effect in the repeat runs; inconclusive = weak or mixed curves, or effect the other way; inactive = flat fitted curve, though single readings scatter.
metric: Potency

Recorded results for 5 compounds are shown here.
[in] Identify measured Potency corresponding to c1ccc2c(c1)sc1ccccc12
[out] inactive

[in] Identify measured Potency corresponding to NC(=O)CF
[out] inactive

[in] Identify measured Potency corresponding to O=C(O)CCCOc1ccc(Cl)cc1Cl
[out] inactive

[in] Identify measured Potency corresponding to O=C1CC[C@@]2(O)[C@H]3Cc4ccc(O)c5c4[C@@]2(CCN3CC2CC2)[C@H]1O5
[out] inactive

[in] Identify measured Potency corresponding to O=S(=O)(c1ccccc1)c1ccccc1
[out] inactive

# context switch: different compound, same Potency
[in] Identify measured Potency corresponding to CC(Cc1ccccc1)NCc1ccccc1Cl (configuration not stated)
[out] inactive

----------
Molecular target: Cytochrome P450 2D6 (Homo sapiens) (UniProt P10635)
Sequence (P10635 whole entry, looked up): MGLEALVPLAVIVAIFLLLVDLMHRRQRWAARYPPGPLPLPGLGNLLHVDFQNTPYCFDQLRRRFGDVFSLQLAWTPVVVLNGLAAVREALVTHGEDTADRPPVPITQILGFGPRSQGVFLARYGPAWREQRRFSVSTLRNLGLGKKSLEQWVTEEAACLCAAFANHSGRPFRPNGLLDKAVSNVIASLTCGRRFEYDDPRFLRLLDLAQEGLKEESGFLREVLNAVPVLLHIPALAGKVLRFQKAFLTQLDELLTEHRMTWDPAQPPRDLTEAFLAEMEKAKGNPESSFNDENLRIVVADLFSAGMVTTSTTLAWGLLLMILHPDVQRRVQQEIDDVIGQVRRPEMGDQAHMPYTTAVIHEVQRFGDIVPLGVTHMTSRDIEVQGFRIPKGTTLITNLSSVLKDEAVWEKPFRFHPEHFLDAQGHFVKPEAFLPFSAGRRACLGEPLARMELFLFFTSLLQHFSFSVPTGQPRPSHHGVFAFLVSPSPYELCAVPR
Assay: Cytochrome P450 Family 2 Subfamily D Member 6 (CYP2D6) small molecule antagonists: luciferase reporter qHTS assay (AID 1671196); note: nearly all actives have a fitted effect of over 50% in size
Details: P450-Glo CYP2D6 enzyme assay, luciferin luminescence, 1 h; series mostly up to 115 µM
Records with an inconclusive call do not appear. The source made the active and inactive calls. Calls follow the shape of the dose curve; as a rule, active = well fitted inhibition curve with a large enough effect in the repeat runs; inconclusive = weak or mixed curves; inactive = no such curve, though single readings can be large or run the other way.
Return exactly one item of YES = active, NO = inactive

[in] Fill in: this test's call for COC1=CC(=O)O[C@@H](/C=C/c2ccc3c(c2)OCO3)C1 is ___
[out] YES

[in] Fill in: this test's call for C=CCOCC1CO1 (stereo not drawn) is ___
[out] NO

[in] Fill in: this test's call for CC(C)(c1ccccc1)c1cc(-n2nc3ccccc3n2)c(O)c(C(C)(C)c2ccccc2)c1 is ___
[out] NO
